- System: HOP-62 NSCLC
- protocolDescription: NCI-60 one-dose screen, 48 h
- measurementSetup: 10 µM unless noted
About 83,000 compounds went through this panel and 20% of them were active in at least one assay; those are over-represented in the sample as a whole. Activity calls are given as the source filed them. The calls were made as follows: active = growth percent below 10; inactive = the rest. Where a SMILES comes first, the peptide text is derived from it. The star is where a group is joined. Trt = c1ccc(C(c2ccccc2)(c2ccccc2)*)cc1; Cbz = O=C(OCc1ccccc1)*
Outcomes: active, inactive

[[record]]
compound = "O=Nc1ccccc1N=O"
studysystem = "HOP-62 NSCLC"
class = "inactive"

[[record]]
compound = "CN(C)CCOc1ccc2c(c1)C(=O)/C(=C\\c1ncc([N+](=O)[O-])n1C)C2"
studysystem = "HOP-62 NSCLC"
class = "active"

[[record]]
compound = "CCC(=O)Sc1ccccc1C(=O)Nc1ccc(Cl)cc1"
studysystem = "HOP-62 NSCLC"
class = "inactive"

[[record]]
compound = "NC(=O)/C=C/C(=O)c1c(Cl)cccc1Cl"
studysystem = "HOP-62 NSCLC"
class = "active"

[[record]]
compound = "Oc1c(Br)cc(Cl)cc1C(c1cc(Cl)cc(Br)c1O)C(Cl)(Cl)Cl"
studysystem = "HOP-62 NSCLC"
class = "inactive"

[[record]]
compound = "C[n+]1c(/C=C/c2ccc([N+](=O)[O-])cc2)ccc2ccccc21"
studysystem = "HOP-62 NSCLC"
class = "inactive"

[[record]]
compound = "CC(C)(C)CC(C)(C)c1ccc(OCCSC(=N)N)cc1"
studysystem = "HOP-62 NSCLC"
class = "inactive"

[[record]]
compound = "NC(=S)N/N=C/c1ccc(Cl)s1"
studysystem = "HOP-62 NSCLC"
class = "inactive"

[[record]]
compound = "Cc1cc2nc(CS)[nH]c2cc1C"
studysystem = "HOP-62 NSCLC"
class = "inactive"

[[record]]
compound = "CCN(CC)CCOc1ccc(-c2nc3cc(Cl)ccc3s2)cc1"
studysystem = "HOP-62 NSCLC"
class = "active"

[[record]]
compound = "Oc1c(Cl)c2ccccc2c2ccccc12"
studysystem = "HOP-62 NSCLC"
class = "inactive"

[[record]]
compound = "Cc1ccc2nc(C[n+]3ccc4ccccc4c3)ccc2c1"
studysystem = "HOP-62 NSCLC"
class = "inactive"

[[record]]
compound = "O=C1c2ccccc2C(=O)N1c1ccccc1"
studysystem = "HOP-62 NSCLC"
class = "inactive"

[[record]]
compound = "Cn1c2ccccc2c2nnc(N/N=C/c3ccccn3)nc21"
studysystem = "HOP-62 NSCLC"
class = "active"

[[record]]
compound = "Cc1ccnc(NC(c2ccccc2)c2ccc3cccnc3c2O)c1 (stereo not drawn)"
studysystem = "HOP-62 NSCLC"
class = "inactive"

[[record]]
compound = "CCCCCCCCCCCCCCCCN(CC)CC"
studysystem = "HOP-62 NSCLC"
class = "active"

[[record]]
compound = "O=C(CC1(O)C(=O)Nc2c(Cl)ccc(Cl)c21)c1ccc(Cl)cc1Cl (stereo not drawn)"
studysystem = "HOP-62 NSCLC"
class = "inactive"

[[record]]
compound = "CCCCCCCCCCCCCCCCOP(=O)([O-])OCC[N+](C)(C)C"
studysystem = "HOP-62 NSCLC"
class = "inactive"

[[record]]
compound = "CN(C)c1ccc(N=Nc2cccc3ccccc23)cc1"
studysystem = "HOP-62 NSCLC"
class = "inactive"

[[record]]
compound = "CCOC(=O)c1c(C)[nH]c(CO)c1C"
studysystem = "HOP-62 NSCLC"
class = "inactive"

[[record]]
compound = "CN(C)c1ccc(C(=C2C=CC(=[N+](C)C)C=C2)c2ccc(N(C)C)cc2)cc1 (tested in a mixture with another compound)"
studysystem = "HOP-62 NSCLC"
class = "active"

[[record]]
compound = "COc1ccccc1/C=C\\C(=O)c1ccccc1"
studysystem = "HOP-62 NSCLC"
class = "inactive"

[[record]]
compound = "CN1c2ccccc2C(C)(C)C12C=Cc1cc(O)ccc1O2 (stereo not drawn)"
studysystem = "HOP-62 NSCLC"
class = "inactive"

[[record]]
compound = "CC(C)c1ccc2nc3ccc(C(=O)NCCN4CCN(c5ccccc5)CC4)cn3c(=O)c2c1"
studysystem = "HOP-62 NSCLC"
class = "inactive"

[[record]]
compound = "O=C(Nc1cccc(Br)c1)Oc1ccc(Cl)c2cccnc12"
studysystem = "HOP-62 NSCLC"
class = "inactive"

[[record]]
compound = "COC(=O)C(CSC(c1ccccc1)(c1ccccc1)c1ccccc1)NC(=O)C(CC(N)=O)NC(=O)OCc1ccccc1 (stereo not drawn) (Cbz-Asn-Cys(Trt)-OMe; configuration not given here)"
studysystem = "HOP-62 NSCLC"
class = "inactive"

[[record]]
compound = "Oc1c(Br)c(Br)c(O)c(Br)c1Br"
studysystem = "HOP-62 NSCLC"
class = "inactive"

[[record]]
compound = "CN(Cc1cnc2nc(N)nc(N)c2n1)c1ccc(C(=O)NC(CCC(=O)O)C(=O)O)cc1 (stereo not drawn)"
studysystem = "HOP-62 NSCLC"
class = "inactive"

[[record]]
compound = "Cc1ccc(N=C=C(c2ccccc2)c2ccccc2)cc1"
studysystem = "HOP-62 NSCLC"
class = "inactive"

[[record]]
compound = "N#CC1C(=O)SC2c3ccccc3C(=O)c3ccccc3C12 (stereo not drawn)"
studysystem = "HOP-62 NSCLC"
class = "inactive"

[[record]]
compound = "C1=C(c2ccccc2)C(c2ccc(OCCN3CCCCC3)cc2)Oc2ccccc21 (stereo not drawn)"
studysystem = "HOP-62 NSCLC"
class = "inactive"

[[record]]
compound = "NC(N)=N/N=C/c1ccc([N+](=O)[O-])o1"
studysystem = "HOP-62 NSCLC"
class = "inactive"

[[record]]
compound = "Nc1nc(N)c2c(ccc3c2ccn3Cc2cccc([N+](=O)[O-])c2)n1"
studysystem = "HOP-62 NSCLC"
class = "active"

[[record]]
compound = "COc1ccc2nc3cc(Cl)ccc3c(NCCNc3c4ccc(Cl)cc4nc4ccc(OC)cc34)c2c1"
studysystem = "HOP-62 NSCLC"
class = "active"

[[record]]
compound = "COc1cc(NS(C)(=O)=O)ccc1Nc1c2ccccc2nc2ccccc12"
studysystem = "HOP-62 NSCLC"
class = "inactive"

[[record]]
compound = "CC1OC2CC(=O)OC2C2=C1C(=O)c1c(O)cccc1C2=O (stereo not drawn)"
studysystem = "HOP-62 NSCLC"
class = "active"

[[record]]
compound = "Cc1ccnc2c1ccc1c(C)ccnc12"
studysystem = "HOP-62 NSCLC"
class = "active"

[[record]]
compound = "CN(C)c1ccc(/C=N/N=C(\\C#N)[S][Sn]([Cl])([c]2ccccc2)[c]2ccccc2)cc1"
studysystem = "HOP-62 NSCLC"
class = "inactive"

